- Tested on: L1210
- procedure summary: Toxic dose against L1210 mouse leukemia cells was determined
- Type: toxicity
readout kind: Toxic dose

compound="CCC1(O)C(=O)OCc2c1cc1n(c2=O)Cc2cc3ccc(C#N)cc3nc2-1 (centres undefined)" target_or_test_system=L1210 meas_value="20 mg/kg"
compound="CCC1(O)C(=O)OCc2c1cc1n(c2=O)Cc2cc3ccc([N+](=O)[O-])cc3nc2-1 (centres undefined)" target_or_test_system=L1210 meas_value="> 80 mg/kg"
compound="CCC1(O)C(=O)OCc2c1cc1n(c2=O)Cc2cc3cc(O)c(O)cc3nc2-1 (centres undefined)" target_or_test_system=L1210 meas_value="> 80 mg/kg"

Turning now to a further compound:
Prompt line: Which Toxic dose is reported for this compound? CCC1(O)C(=O)OCc2c1cc1n(c2=O)Cc2cc3ccc(O)cc3nc2-1 (centres undefined)
Response line: > 60 mg/kg
